- Test system: KB-3-1
- Assay details: Cytotoxic Profiling of Annotated Libraries Using Quantitative High-Throughput Screening (AID 1296008); also: nearly all actives have a fitted effect of over 60% in size
- Test settings: Five cell lines viability, CellTiter-Glo ATP luminescence, 48-72 h
Inconclusive results are not listed. Active and inactive are the calls of the source. Calls follow the shape of the dose curve; as a rule, active = well fitted inhibition curve with a large enough effect; inconclusive = small, poorly fitted or top-dose-only effect; inactive = flat fitted curve, though single readings scatter.
Possible outcomes: t (active), f (inactive)

1) COc1ccc(CC2C(=O)NC(C)C(=O)N(C)C3Cc4ccc(cc4)Oc4cc(ccc4OC4OC(CO)C(O)C(O)C4O)CC(C(=O)NC(C)C(=O)NC(C)C(=O)N2C)N(C)C3=O)cc1 (stereo unspecified) : t
2) C/C1=C\CCC(C)CCO[C@@H]2O[C@H](CO[C@@H]3OC[C@H](O)[C@H](O)[C@H]3OC1=O)[C@@H](O)[C@H](O)[C@H]2O (stereo partly specified) : f
3) Cc1nc(NC(=O)N2CCCC2C(N)=O)sc1-c1csc(C(C)(C)C)n1 (stereo unspecified) : f
4) CCS(=O)(=O)N1CCN(c2ccc(Nc3ncc(C(N)=O)c(NC4CC4)n3)cc2)CC1 : t
5) CC1=C(C(=O)OCc2ccccc2)C(c2ccc(-c3ccccc3)cc2)NC(=O)N1CCCCCC(=O)O (stereo unspecified) : f
6) COc1cc(-c2ncn(/C=C\C(=O)OC(C)C)n2)cc(C(F)(F)F)c1 : t
7) Nc1ccc(/C=C/C(=O)NCc2cc3cc(-c4ccc(C(=O)N5CCC(F)(F)CC5)cc4)cc(-c4ccc(F)cc4)c3o2)cn1 : t
8) COc1cc([C@H]2c3cc(O)c(OC)cc3C[C@@H](CO[C@@H]3O[C@H](CO)[C@@H](O)[C@H](O)[C@H]3O)[C@@H]2CO)ccc1O : f
9) OC[C@H]1O[C@@H](Oc2ccccc2)[C@H](O)[C@@H](O)[C@@H]1O : f
10) CC1=C(/C=C/C(C)=C\C=C\C(C)=C/C(=O)O)C(C)(C)CCC1 : f
11) COc1cc(C(=O)O)ccc1OC1OC(CO)C(O)C(O)C1O (stereo unspecified) : f
12) COc1cc2occc2c(O[C@@H]2O[C@H](CO)[C@@H](O)[C@H](O)[C@H]2O)c1CCC(=O)O : f
13) CC1(C)CC[C@]2(C(=O)O)CC[C@]3(C)C(=CCC4[C@@]5(C)CC[C@H](O[C@@H]6O[C@H](C(=O)O)[C@@H](O[C@@H]7OC[C@@H](O)[C@H](O)[C@H]7O)[C@H](O)[C@H]6O)C(C)(C)C5CC[C@]43C)C2C1O (stereo partly specified) : f
14) CC(C)=CCC/C(C)=C/CO[C@@H]1O[C@H](CO)[C@@H](O)[C@H](O)[C@H]1O : f
15) CCc1c(-c2ccccc2)c(-c2ccccc2)nn1-c1ccccc1-c1cccc(OCC(=O)O)c1 : f
16) CC1(C)CC[C@]2(C(=O)O)CC[C@]3(C)C(=CCC4[C@@]5(C)C[C@@H](O)[C@H](O)C(C)(C)C5CC[C@]43C)C2C1 (stereo partly specified) : f

====

- System: JEG-3
- Assay details: Primary qHTS to identify gynecologic anti-cancer compounds using libraries of approved drugs and bioactive compounds (AID 1345084); also: % is scaled to controls: 0 for no effect and ±100 for the full control effect; nearly all actives have a fitted effect of over 55% in size
- Test settings: Gynecologic cancer cell panel viability, ATPlite luminescence, 48 h; series mostly up to 57.5 µM
Records with an inconclusive call do not appear. The source made the active and inactive calls. Calls come from the whole dose curve; as a rule, active = well fitted cell-killing curve with a large enough effect; inconclusive = small, poorly fitted or top-dose-only effect, or effect the other way; inactive = flat fitted curve, though single readings scatter.
Reported property: activity change, negative = cytotoxicity

1. COC(=O)C12C(=O)C(C)=C(O)C1(C)C(C)=CC1C3(CO)CCC(O)C(C)(C)C3CCC12C (stereo not drawn) : inactive
2. C=C(C)C(=O)O[C@H]1C[C@@](C)(O)C(=O)CC(O)/C(C)=C\[C@H]2OC(=O)C(=C)[C@H]12 (stereo partly drawn) : inactive
3. CN=C(N)NCCCCC/C=C(/C)CC(C)C1OC(=O)C(C)C(O)/C=C/C(C)C(O)CC(O)C(C)C(O)CCC(C)C(O)CC2(O)OC(CC(OC(=O)CC(=O)O)CC(O)CC(O)C(C)C(O)/C(C)=C/CCC1C)CC(O)C2O (stereo not drawn) : 16% [at 11.6 µM] (inactive)
